# tested.system: Amyloid-beta precursor protein (Homo sapiens)
# assay.remarks: Inhibition of self-induced amyloid beta 42 (unknown origin) fibril formation at 10 uM incubated for 6 hrs by thioflavin-T fluorescence assay relative to control
Please respond with reported inhibition for every item in the list.

`O=C(/C=C/c1cccc(O)c1O)CC(=O)/C=C/c1cccc(O)c1O` yielded inhibition of 95 to 100%

`O=C(/C=C/c1cc(O)ccc1O)CC(=O)/C=C/c1cc(O)ccc1O` yielded inhibition of 95 to 100%

`O=C(/C=C/c1cccc(O)c1)CC(=O)/C=C/c1cccc(O)c1O` yielded inhibition of 95 to 100%

---

# assay.remarks: Cytotoxicity against rat PC12 cells measured after 24 hrs by WST8/PMS assay
# Assay type: cell-based, PC-12
Please respond with reported CC50 at 24 h for every item in the list.
# output: bare number, implied unit µM

COc1cc(/C=C/C(=O)CC(=O)/C=C/c2ccc(O)c(OC)c2)ccc1O [CURCUMIN] yielded CC50 at 24 h of 42

`O=C(/C=C/c1ccc(O)cc1)/C=C/c1cccc(O)c1O` yielded CC50 at 24 h of 12

`O=C(/C=C/c1ccc(O)c(O)c1)c1cc(O)ccc1O` yielded CC50 at 24 h of 80
